Test: NCI Yeast Anticancer Drug Screen. Data for the sgs1 mgt1 strain (AID 161);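 further: 0% = growth of cultures given vehicle only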
Conditions: S. cerevisiae sgs1 mgt1 strain, at 5.0 µM (retest, dose inferred, filed as 0.5), active compounds read high
Method: Growth inhibition of yeast strains with defined genetic alterations is measured as a screen for potential anti-cancer activity. Selected strains with alterations in DNA damage repair or cell cycle control were exposed to compounds and growth inhibition was measured relative to vehicle treated controls. The strain used in this assay is sgs1 mgt1
The panel holds about 79,000 compounds, 15% with a hit somewhere; the sample as a whole holds those more often.
metricName: growth inhibition (%)
Give bare numbers, in %.

[
  {
    "compound": "N#CCc1cccc2ccccc12",
    "resultUnits": "%",
    "numericReadout": 0
  }
]

Could you tell me growth inhibition for each of these compounds? They are listed below.
1. C=c1c2ccccc2oc2nc3[nH]c(N)c(C#N)c(N)c3c(=N)c12
2. Cc1c2c(c(C)c3c[n+](C)ccc13)Oc1ccccc1O2

Given back:
[11, 11]

Dear reader, for each entry below, please note its growth inhibition.
1. Fc1ccc(NCCS)cc1
2. CCCCCCCCCCCCN1C(C)=CS/C1=C\C=C\c1scc(C)[n+]1CCCCCCCCCCCC
3. CCCCCCCCC(=O)OCCCC(CCC(CCC1CCCO1)OC(=O)CCCCCCCC)OC(=O)CCCCCCCC (stereo not given)

Given back:
1: -18; 2: 18; 3: -12

List reported growth inhibition for each of these compounds:
1. CCCCCCCCCCCC1N=C(N)N=C(N)N1c1cccc(Br)c1 (stereo not given)
2. COc1ccc(C(OCC2OC(n3ccc(NC(=O)c4ccccc4)nc3=O)C(O)C2O)(c2ccccc2)c2ccccc2)cc1 (stereo not given)
3. CC(C)(C)c1ccc(O)c(-c2ccccc2)c1
4. CCC[CH2][Sn]([CH2]CCC)([CH2]CCC)[O]C(=O)C(OC(C)=O)c1ccccc1 (stereo not given)
5. O=C(O)c1ccc(-c2ccccc2)cc1
6. CSc1nc(C)c(C(=O)CCN2CCN(c3ccccn3)CC2)s1
7. CC(=O)C1Cc2ccccc2C1=O (stereo not given)

Given back:
98
36
-2
99
12
-23
0

Provide each entry's growth inhibition from the list below.
1. O=C1c2ccccc2Cc2cccc(Cl)c21
2. O=C(c1ccc(O)c(Br)c1)c1ccc(O)c(Br)c1
3. CCc1cnc2ccccc2c1/C=C/c1ccc(N(C)C)cc1
4. CC1C2c3ccccc3C(c3ccccc32)C1CO (stereo not given)
5. N#CC(I)CS(=O)(=O)c1ccccc1 (stereo not given)
6. Cc1cc(C(=O)c2ccccc2Cl)ccc1O
7. CC12CCC(O)CC1=CCC1C2CCC2(C)C3=NN=CC3CC12 (stereo not given)
8. COC(=O)[C@]1(C)CCC[C@]2(C)c3ccc(C(C)C)cc3C(=O)[C@@H](Br)[C@@H]12

Given back:
4
44
4
6
99
3
35
3
